Target: recombinant SARS-CoV-2 Main protease (Mpro) (Severe acute respiratory syndrome coronavirus 2 (2019-nCoV) (SARS-CoV-2), UniProt P0DTD1)
Assay: Cov Mpro Biochemical IC50 Assay
Conditions: recombinant SARS-CoV-2 Mpro 7.5 nM, fluorogenic peptide substrate 40 μM; read-out: MPro IC50
pIC50: −log10 of the molar value.
Where pIC50 equals or exceeds 8, the correct label is fulfilled; where it does not, the label is not fulfilled.

{"columns": ["compound", "label_class"],
 "data": [
  ["COc1cc(-c2cc3c(s2)c(=O)n(-c2cncc4c2c(C)nn4C)c(=O)n3CCC#N)c(Cl)cc1F (single isomer, unassigned) [Example 1044]", "fulfilled"],
  ["N#CCCn1c(=O)n(-c2cncc(CO)c2)c(=O)c2sc(-c3ccccc3C#N)cc21", "not fulfilled"],
  ["COc1cc(-c2cc3c(s2)c(=O)n(-c2cncc4nc(C(F)(F)F)n(C)c24)c(=O)n3CCC#N)c(C#N)cc1F", "not fulfilled"],
  ["COc1cc(-c2cc3c(s2)c(=O)n(-c2cncc4c(C)nn(C)c24)c(=O)n3CCC#N)c(Cl)cc1F", "fulfilled"],
  ["COc1cnc(Cl)c(-c2cc3c(s2)c(=O)n(-c2cncc(C(F)(F)F)c2)c(=O)n3CCC#N)c1", "not fulfilled"],
  ["COc1ccc(Cl)c(-c2cc3[nH]c(=O)n(-c4cncc5ccc(N6CCn7c(nnc7C(F)(F)F)C6)cc45)c(=O)c3s2)c1", "fulfilled"],
  ["Cc1ccc2cncc(-n3c(=O)[nH]c4cc(-c5ccccc5Cl)sc4c3=O)c2n1", "fulfilled"],
  ["COc1cc(Cl)c(-c2cc3[nH]c(=O)n(-c4cncc5ccccc45)c(=O)c3s2)cc1C", "not fulfilled"],
  ["COc1cc(-c2sc3c(=O)n(-c4cncc5ccccc45)c(=O)[nH]c3c2C)c(Cl)cc1F", "not fulfilled"],
  ["CC(C)(C)c1cncc(-n2c(=O)[nH]c3cc(-c4ccccc4Cl)sc3c2=O)c1", "not fulfilled"],
  ["C#Cc1cc(F)c(OC)cc1-c1cc2c(s1)c(=O)n(-c1cncc3nnn(C4CC4)c13)c(=O)n2CCC#N", "not fulfilled"],
  ["O=c1[nH]c2cc(-c3ccccc3Cl)sc2c(=O)n1-c1cncc2cn(CC(F)(F)F)nc12", "not fulfilled"],
  ["COc1cnc(Cl)c(-c2cc3[nH]c(=O)n(-c4cncc5cnn(C)c45)c(=O)c3s2)c1", "not fulfilled"],
  ["COc1ccc(C#N)c(-c2cc3c(cc2F)c(=O)n(-c2cncc4ccccc24)c(=O)n3CC#N)c1 (atropisomer, axis not shown)", "fulfilled"],
  ["Cc1cc(C)c(-c2cc3[nH]c(=O)n(-c4cncc5ccccc45)c(=O)c3s2)cc1C#N", "not fulfilled"],
  ["COc1cc(-c2cc3[nH]c(=O)n(-c4cncc(C)c4C)c(=O)c3s2)c(Cl)cc1F", "fulfilled"],
  ["COc1cc(-c2cc3c(s2)c(=O)n(-c2cncc4ccncc24)c(=O)n3CCC#N)c(Cl)cc1F (single isomer, unassigned) [Example 1097]", "not fulfilled"],
  ["Cc1c2c(-n3c(=O)c4sc(-c5cc(F)c(F)cc5Cl)cc4n(CCC#N)c3=O)cncc2nn1C", "not fulfilled"]
]}
